Format: cell-based, human
Ends that are not written are not given here.
metric_name: IC50

Hello, please tell me recorded IC50 for this one: RRWQWR-NH2 [LfcinB (20–25)]
> 203 µM

---

Type: cell-based, human
Details: human
Ends that are not written are not given here.
metric_name: IC50 at 2 h

Report measured IC50 at 2 h; entry is RRWQWRMKKLG-NH2 [LfcinB (20–30)]
> 130 µM

---

Type: cell-based, human
Details: human
metric_name: IC50 at 2 h

Name the recorded IC50 at 2 h of the item CSCC[C@H](NC(=O)[C@H](CCCNC(=N)N)NC(=O)[C@H](Cc1c[nH]c2ccccc12)NC(=O)[C@H](CCC(N)=O)NC(=O)[C@H](Cc1c[nH]c2ccccc12)NC(=O)[C@H](CCCNC(=N)N)NC(=O)[C@H](CCCNC(=N)N)NC(=O)[C@H](C)NC(=O)[C@H](CCCCN)NC(=O)[C@@H](N)Cc1ccccc1)C(=O)N[C@@H](CCCCN)C(=O)N[C@@H](CCCCN)C(=O)N[C@@H](CC(C)C)C(=O)NCC(=O)N[C@@H](C)C(=O)O [[Ala^19]-LfcinB (17–31)] in your answer.
> 102 µM

---

Format: cell-based, human
pIC50: −log10 of the molar value. Ends that are not written are not given here.
metric_name: pIC50

Output measured pIC50 for this item: RRWQWR-NH2 [LfcinB (20–25)]
< 3.69
